# Tested on: Rat fibroblasts (CREF)
# protocol: Peg3 promoter luciferase inhibitors, potency, dose response, cell-based, HeLa, CREF/GAPDH counter-screen panel (AID 624167)
# condition-context: CREF/GAPDH counter-screens, run 1, dose range 1, individual replicate IC50 per panel
reported-property: IC50 (nM)
Report as a plain number; the unit nM is understood.

IN: Sample Cc1ccc(C(=O)Nc2nc3ccccc3[nH]2)cc1 — what was its IC50?
OUT: 523

IN: Also need O=C1c2cccc3cc([N+](=O)[O-])cc(c23)C(=O)N1CCN1CCCC1 , thanks.
OUT: 4170

IN: Also need CCN(CCO)c1ccc(N=Nc2cc(C)[nH]n2)cc1 , thanks.
OUT: 1520

IN: Also need C(=Cc1cnc2ccccc2n1)c1ccc2c(c1)OCO2 , thanks.
OUT: 1020

IN: Also need O=C(/C=C/c1ccc(Cl)c([N+](=O)[O-])c1)c1ccc(O)cc1 , thanks.
OUT: 29700

IN: Also need CC(=O)CSc1ccc(-c2nc3cc(C)c(C)cc3[nH]2)cn1 , thanks.
OUT: 1790

IN: Also need CC1=CC2/C=C(\C)CCC(O)C(O)/C=C/C(=O)C23C(=O)NC(CC(C)C)C3C1C (stereo unspecified) , thanks.
OUT: 20100

IN: Also need CC(C)(C)C(=O)Nc1ccc(NC(=O)c2ccco2)nc1 , thanks.
OUT: 224
